Values from paper PMC4148159

Measured pEC50 values are reported for all entries that follow.
- Tested on: Vector control cells (DKO MEF, RH7777, CHO, B103)
- protocol-text: Fura-2AM Ca2+ mobilization in empty vector control cells
- Type: cell-based
- assay-setup: read-out: vector EC50
pEC50: −log10 of the molar value.

As a guide, the following entries are already answered.
{"columns": ["compound", "experimental-value"],
 "data": [
  ["O=C(O)c1ccccc1SCCCN1C(=O)c2cccc3cccc(c23)C1=O", "< 5.00"],
  ["O=C(O)c1cccc(S(=O)(=O)NCCCCN2C(=O)c3cccc4cccc(c34)C2=O)c1 [Compound 11a]", "< 5.00"],
  ["O=C(O)c1cc(Br)ccc1S(=O)(=O)NCCCCN1C(=O)c2cccc3cccc(c23)C1=O", "< 5.00"],
  ["O=C(O)c1ccccc1S(=O)(=O)NCCCN1C(=O)c2cccc3cccc(c23)C1=O", "< 5.00"],
  ["O=C(O)c1ccccc1S(=O)(=O)NCCCCN1C(=O)c2cccc3cccc(c23)C1=O", "< 5.00"]
]}

Record O=C(O)c1ccc(S(=O)(=O)NCCCCN2C(=O)c3cccc4cccc(c34)C2=O)cc1 [Compound 11b] has Vector control cells (DKO MEF, RH7777, CHO, B103) pEC50 equal to < 5.00

Record O=C(O)c1ccc(Br)cc1S(=O)(=O)NCCCCN1C(=O)c2cccc3cccc(c23)C1=O has Vector control cells (DKO MEF, RH7777, CHO, B103) pEC50 equal to < 5.00

Record O=C(O)c1cc(F)ccc1S(=O)(=O)NCCCCN1C(=O)c2cccc3cccc(c23)C1=O [Compound 11c] has Vector control cells (DKO MEF, RH7777, CHO, B103) pEC50 equal to < 5.00

====

- target-under-test: LPA2 (Homo sapiens)
- Sequence (Q9HBW0 whole entry): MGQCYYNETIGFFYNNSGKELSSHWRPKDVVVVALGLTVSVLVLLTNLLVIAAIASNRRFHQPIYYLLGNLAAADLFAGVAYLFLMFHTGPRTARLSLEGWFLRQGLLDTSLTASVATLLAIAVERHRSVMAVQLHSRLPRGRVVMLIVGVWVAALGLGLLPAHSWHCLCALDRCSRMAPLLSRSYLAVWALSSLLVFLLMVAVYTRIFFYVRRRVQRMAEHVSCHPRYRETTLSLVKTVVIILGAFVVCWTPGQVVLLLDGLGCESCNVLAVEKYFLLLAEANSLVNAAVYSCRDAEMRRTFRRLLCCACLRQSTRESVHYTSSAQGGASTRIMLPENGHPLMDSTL
- protocol-text: Fura-2AM Ca2+ mobilization, agonist mode, LPA2 DKO MEF cells
pEC50: −log10 of the molar value.
Measured pEC50 values are reported for all entries that follow.

{"columns": ["chemical-string", "pEC50"],
 "data": [
  ["O=C1C(=O)N(CCCCNS(=O)(=O)c2ccccc2C(=O)O)c2ccccc21", "< 5.00"],
  ["O=C(O)c1ccccc1S(=O)(=O)NCCCN1C(=O)c2cccc3cccc(c23)C1=O", "~5.70"]
]}

Now for the compound whose pEC50 we want.
Record O=C(O)c1ccccc1S(=O)(=O)NCCCCN1C(=O)c2ccccc2C1=O has LPA2 (Homo sapiens) pEC50 equal to < 5.00

====

- target-under-test: LPA3 (Homo sapiens)
- Sequence (Q9UBY5 whole entry): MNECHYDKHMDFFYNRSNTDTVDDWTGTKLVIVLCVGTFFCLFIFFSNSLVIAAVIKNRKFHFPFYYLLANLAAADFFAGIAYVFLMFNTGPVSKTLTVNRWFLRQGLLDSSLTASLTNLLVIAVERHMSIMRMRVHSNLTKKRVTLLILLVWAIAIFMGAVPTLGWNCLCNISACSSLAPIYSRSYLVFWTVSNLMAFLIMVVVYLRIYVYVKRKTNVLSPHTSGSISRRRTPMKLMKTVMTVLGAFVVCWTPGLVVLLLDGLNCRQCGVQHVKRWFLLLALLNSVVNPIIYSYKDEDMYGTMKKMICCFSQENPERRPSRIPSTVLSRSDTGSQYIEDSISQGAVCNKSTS
- protocol-text: Ca2+ mobilization antagonist screen against LPA 18:1, LPA3
pIC50: −log10 of the molar value.
reported-endpoint: pIC50

Quick note, pIC50 for O=C(O)c1ccccc1S(=O)(=O)NCCCN1C(=O)c2cccc3cccc(c23)C1=O [Compound 4] landed at < 5.00
